# FACS signal at 14.815 nM annotations
Molecular target: T1, human LAG3 expressed on cells (human, UniProt P18627 23-525)
T1 construct: whole, on cells
T1 sequence (looked up): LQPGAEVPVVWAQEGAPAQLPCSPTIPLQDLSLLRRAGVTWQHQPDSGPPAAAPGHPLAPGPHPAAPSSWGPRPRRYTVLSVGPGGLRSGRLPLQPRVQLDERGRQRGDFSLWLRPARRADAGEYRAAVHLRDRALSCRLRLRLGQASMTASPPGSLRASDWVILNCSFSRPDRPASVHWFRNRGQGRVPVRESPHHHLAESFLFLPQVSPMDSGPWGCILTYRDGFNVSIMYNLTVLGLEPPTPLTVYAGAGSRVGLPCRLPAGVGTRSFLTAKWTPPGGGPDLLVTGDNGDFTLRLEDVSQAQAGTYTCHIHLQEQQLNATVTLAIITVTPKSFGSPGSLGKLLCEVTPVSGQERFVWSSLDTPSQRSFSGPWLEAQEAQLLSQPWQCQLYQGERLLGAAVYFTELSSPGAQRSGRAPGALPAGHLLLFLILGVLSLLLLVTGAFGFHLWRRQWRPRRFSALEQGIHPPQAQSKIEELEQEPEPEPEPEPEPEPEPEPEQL
Assay: FACS, 293T-hLAG3 cells
# print the numeric value only

sdAb No. 25-B7 (VHH, Humanized sdAb No. 25; not shown: Fc part implied by anti-human IgG Fc detection) VHH: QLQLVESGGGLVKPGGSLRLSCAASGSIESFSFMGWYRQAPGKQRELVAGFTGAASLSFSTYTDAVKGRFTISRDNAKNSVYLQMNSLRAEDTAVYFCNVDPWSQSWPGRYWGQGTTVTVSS	2210
sdAb No. 25 (VHH, Fc of the tested form not described; also called sdAb 25; sdAb #25; not shown: Fc part implied by anti-human Fc capture and anti-human IgG Fc detection) VHH: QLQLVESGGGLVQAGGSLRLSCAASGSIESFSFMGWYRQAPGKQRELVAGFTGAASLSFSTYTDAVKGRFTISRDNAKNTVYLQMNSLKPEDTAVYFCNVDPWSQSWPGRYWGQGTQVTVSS	2280
sdAb No. 27 (VHH, Fc of the tested form not described; also called sdAb 27; not shown: Fc part implied by anti-human Fc capture and anti-human IgG Fc detection) VHH: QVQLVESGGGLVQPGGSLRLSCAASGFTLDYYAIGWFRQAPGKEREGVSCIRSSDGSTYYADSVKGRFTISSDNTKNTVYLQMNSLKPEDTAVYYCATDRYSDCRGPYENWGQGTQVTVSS	4130

Note: attention shifts to another entry.
Ask | State its FACS signal at 14.815 nM for this binder: sdAb No. 27-H1B3 (VHH, Humanized sdAb No. 27-H1; not shown: Fc part implied by anti-human IgG Fc detection) VHH: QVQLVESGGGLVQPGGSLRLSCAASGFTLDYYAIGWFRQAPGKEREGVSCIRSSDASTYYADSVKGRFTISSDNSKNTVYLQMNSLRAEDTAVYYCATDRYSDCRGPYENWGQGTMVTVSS
Reply | 4360
